Test system: SNB-75 CNS
Assay: NCI-60 one-dose screen, 48 h
Conditions: 10 µM unless noted
Compounds without any hit were thinned out: in the full panel of roughly 83,000, 20% have a hit. The source made the active and inactive calls. Rule for the calls: active = growth percent below 10; inactive = the rest.
Your reply should match one of these outcome classes. 1 for active, -1 for inactive

GET /call?item= "CCN(CC)CCOc1ccc(/C(=C(\C)c2ccc(OC)c(F)c2)c2ccc(Cl)cc2)cc1" returns the recorded outcome of this test. -1

For this compound, state the assay outcome: "CCCN1CCN(c2ccc3nc(-c4ccc5nc(-c6ccc(OCC)c(OCC)c6)[nH]c5c4)[nH]c3c2)CC1" 1

Answer briefly: the call reported for "O=C(Nc1ccccn1)[C@H](O)[C@@H](O)C(=O)N1CCOCC1" in this assay. -1

Which result was noted for this compound in the test: "Cc1nn(Cc2ccccc2)cc1C(=O)Nc1sc2c(c1C(N)=O)CCC(=O)C2" -1

State the result this test recorded for "CCCCCCNc1cc(C)nc2ccc(OC)cc12" . -1

# outcome recorded in this test, key = "Cc1cc2c(F)c(Oc3ncnc(Nc4ccc(N5C[C@@H](C)N[C@@H](C)C5)cc4)c3C#N)cc(F)c2[nH]1" 1

What did the test return for "CN(CCC(=O)/C(=C\c1ccccc1)c1ccc(Cl)cc1)Cc1ccccc1" ? -1

Just curious, what result did "CN(C)CCOC(=O)Nc1ccc(Cl)cc1" get here? -1

###

Tested on: SR leukemia
Test: NCI-60 one-dose screen, 48 h
Conditions: 10 µM unless noted
Compounds without any hit were thinned out: in the full panel of roughly 83,000, 20% have a hit. Active and inactive are the calls of the source. The calls were made as follows: active = growth percent below 10; inactive = the rest.
The reply should be one of these categories: active, inactive

Please let me know the test result on file for "COC(=O)[C@]12CC[C@@H](C)[C@H](C)[C@@H]1C1=CC[C@@H]3[C@@]4(C)C(C=O)=C[C@@](C)(CO)C4=CC[C@@]3(C)[C@]1(C)CC2" . inactive

Per the records of this test, what outcome belongs to "Clc1ccc(/C=C/c2nc(Nc3ccc(Cl)cc3)c3ccccc3n2)cc1" ? inactive

Lab log entry: Nc1ccn(C2OC(F)(CO)C(O)C2F)c(=O)n1 (centres undefined) — outcome as called in the assay? inactive

Could you please tell me the result logged for "O=C(NC(=S)Nc1ccc(-c2nc3ccccc3[nH]2)cc1)c1ccc2ccccc2c1" in this assay? active

Fill in: this test's call for "O=C(Nc1cccc2[nH]c(C(F)(F)F)nc12)c1cc(Cl)ccc1Cl" is ___ inactive

Outcome logged for "COc1ccc(/C(C)=C(\c2ccc(Cl)cc2)c2ccc(OCCN3CCCCC3)cc2)cc1F" in this assay: active

Please indicate how the test categorized "Cc1ccc(S(=O)(=O)NN/C(N)=N\S(=O)(=O)c2cc(C)c(Cl)cc2SCc2ccccc2)cc1" . inactive

# lookup: test call for "COc1cc2oc(-c3cccc(C(=O)Nc4ccc(C#N)cc4)c3)cc(=O)c2c(O)c1OC" inactive

Kindly provide the recorded test outcome for the following compound: CC12CC(C#N)CCC1O2 (centres undefined) inactive

Please state the recorded outcome for this compound: CCCCOc1nc2ccc(Cl)cc2cc1/C=C/C(=O)/C=C1/CC(c2cc3cc(Cl)ccc3nc2OCCCC)Nc2ccccc2N1 (centres undefined) inactive

Identify the outcome logged in this assay for the compound shown: "CC(=O)OCCc1ccccc1" inactive

// outcome(item) with item = "Nc1c(C(=O)c2ccc(Cl)s2)sc2nc3c(cc12)CCCC3" inactive

Hi, sorry to bother you, what did the test record for "Cc1nc(Nc2ccc(NC(=S)Nc3ccccc3)cc2)nc2nc(SCc3ccccc3)[nH]c(=O)c12" ? inactive

Would you mind telling me which call this test gave "Nc1c(-c2nc3ccc(Br)cc3c(=O)[nH]2)nnn1-c1ccccc1" ? inactive

Can you look up the reported call for "N#Cc1c(N)nc2c(nnn2-c2cccc(Br)c2)c1N" for me? inactive

Could you check what this test reported for "COc1cc2c(cc1OC)-c1ccc3cc4c(cc3c1N(CCCN(C)C)C2)OCO4" ? inactive

Any idea what this test logged for "CC(=O)c1ccc2c(c1)CCN2" ? inactive

Which outcome was assigned to "Cc1cc(Cc2cc(C)cc(C(C)(C)C)c2O)c(O)c(C(C)(C)C)c1" in this test? active

What was the test verdict on CCCCOC(=O)c1ccc(NC(=O)C(C)N2CCOCC2)cc1 (centres undefined) ? inactive

###

System: SW-620 colon
Assay: NCI-60 one-dose screen, 48 h (100 = growth as untreated, 0 = no growth, -100 = all killed)
Settings: 10 µM unless noted
About 83,000 compounds went through this panel and 20% of them were active in at least one assay; those are over-represented in the sample as a whole. Activity calls are given as the source filed them. Rule for the calls: active = growth percent below 10; inactive = the rest.
Assign growth to each entry below.

Look up and report growth, with SW-620 colon as system, for CNC(=O)NCC1OC(n2cnc3c(NC(=O)Nc4ccccc4)ncnc32)C2OC(C)(C)OC12 (centres undefined) 91.1% (inactive)

State recorded growth with SW-620 colon, entry CC(C)(C)OC(=O)N1Cc2cc3ccccc3nc2C1CO (centres undefined) , no comment. 94.5% (inactive)

Give SW-620 colon growth for the following compound: "O=C1Nc2ccccc2/C1=N/N=C/c1ccsc1" 97.8% (inactive)

Provide growth, tested on SW-620 colon, for "CCCCCCCC/C=C\CCCCCCCC(=O)Oc1cccc2cccnc12" . 59.4% (inactive)

###

Tested on: A498 renal
Test: NCI-60 one-dose screen, 48 h
Conditions: 10 µM unless noted
Compounds without any hit were thinned out: in the full panel of roughly 83,000, 20% have a hit. Active and inactive are the calls of the source. How the source made its calls: active means growth percent below 10; inactive means the rest.
Entry note: the call must match one of active, inactive

// outcome(item) with item = "COc1ccc(/C(C)=N/NS(=O)(=O)c2ccc(C)cc2)cc1OC" inactive

What did this assay record as the result for CCCCOC(=O)c1ccc(NC(=O)C(C)N2CCOCC2)cc1 (configuration not stated) ? inactive

What classification did "Cc1cnc(Nc2ccc(N3CCN(C)CC3)cc2)nc1Nc1ccc(Cl)c(NS(=O)(=O)C(C)(C)C)c1" end up with in this test? active

Hi, sorry to bother you, what did the test record for "Cc1ccc(-n2nnc(C3=NCCc4c3[nH]c3ccc(Cl)cc43)c2C)cc1" ? inactive

Please let me know the test result on file for "COc1ccc(/C=C2\COc3ccc(O)cc3C2=O)cc1OC" . inactive

Called result for COc1ccc(-n2sc(=O)n(Cc3ccc(COC(=O)C(C)c4ccc(CC(C)C)cc4)cc3)c2=O)cc1 (configuration not stated) inactive

Could you check what this test reported for "CCN(CCO)CC(=O)c1cc(Cl)cc(Cl)c1Cl" ? inactive

Check the results log: what was the call for "COc1ccc(/C(C)=C(\c2ccc(Cl)cc2)c2ccc(OCCCN(C)C)cc2)cc1F" ? inactive

# lookup: test call for "CN(CCCCCCCCNc1ccnc2ccccc12)Cc1ccc(-c2ccc(-c3ccc(C#N)cc3)s2)cc1" inactive

Hello, I am checking results. What call was entered for CC(C)CCC[C@@H](C)[C@H]1CCC2C3=CCn4c(=O)ccc(=O)n4C3CC[C@@]21C (some centres not stated) ? active

Could you please tell me the result logged for "Cc1cc(-c2ccccc2)cc(SC#N)[n+]1[O-]" in this assay? inactive

Assay result, entry "NC(=Nc1ccc(N)cc1)C(N)=Nc1ccc(N)cc1" — outcome? inactive

###

I'd appreciate it if you could supply growth values for the items below.
System: SW-620 colon
Assay: NCI-60 one-dose screen, 48 h (100 = growth as untreated, 0 = no growth, -100 = all killed)
Conditions: 10 µM unless noted
Compounds without any hit were thinned out: in the full panel of roughly 83,000, 20% have a hit.
Please give a number only; it is taken to be in %.

Using the record for CCOc1cc(C2C(Cl)C(=O)N2n2cnnc2)ccc1O (centres undefined) , state its measured growth. 97.2

For the compound "CCCCNC(=O)c1cc(NCc2cc(O)ccc2O)ccc1O" , give its reported growth. 110

Find the measured growth of "CN1CCN(c2ccc3nc(/N=C/c4ccc5sc(-c6ccc([N+](=O)[O-])cc6)nc5c4)sc3c2)CC1" and report it. 116

Name the recorded growth of the compound listed here: "CCOC(=O)c1ccc(NC(=O)CCCN(CC)CC)cc1" 110

###

Test system: SF-539 CNS
Assay: NCI-60 one-dose screen, 48 h
Details: 10 µM unless noted
This is part of a sample that, as a whole, favours compounds with a hit. Of some 83,000 tested, about 20% had one in any assay. Active and inactive are the calls of the source. The calls were made as follows: active = growth percent below 10; inactive = the rest.
Select the correct class. Options are 1.0 = active, 0.0 = inactive and nothing else.

Per the assay record, what outcome was assigned to CN1C(=O)CCC(N2C(=O)c3cccc(NCCOCCOCCNC(=O)c4cc5c(o4)C(=O)c4ccccc4C5=O)c3C2=O)C1=O (stereo not drawn) ? 1.0

Each compound tested received a call. Report the one for "Fc1ccc(Nc2ccc3cc(OCCCN4CCOCC4)ccc3n2)cc1F" . 0.0

Call for entry "Nc1nc(Nc2ccc(Cl)cc2)nn1S(=O)(=O)c1ccc(-c2ccc(F)cc2)cc1" : 0.0

Could you please tell me the result logged for Nc1nc(I)c2ncn(C3OC(CO)C(O)C3O)c2n1 (stereo not drawn) in this assay? 0.0

Test call for this compound, please: "c1ccc(-c2oc3ccccc3c2-c2ccccc2)cc1" 0.0

Please let me know the test result on file for "CO[C@H]1/C=C/O[C@@]2(C)Oc3c(C)c(O)c4c(c3C2=O)C(=O)C(/C=N/N(c2ccccc2)c2ccccc2)=C(NC(=O)/C(C)=C\C=C\[C@H](C)[C@H](O)[C@@H](C)[C@@H](O)[C@@H](C)[C@H](OC(C)=O)[C@@H]1C)C4=O" . 1.0

Recorded test call requested for "N#Cc1c(N)n2c(nc1=Nc1ccc(Cl)cc1)sc1cc(Cl)ccc12" 0.0

Any idea what this test logged for "CCCN1CCN(c2ccc3nc(-c4ccc5nc(-c6ccc(OCC)c(OCC)c6)[nH]c5c4)[nH]c3c2)CC1" ? 1.0
